- Test system: A2780 (ovarian cell line)
- PROCEDURE_SUMMARY: Cytotoxicity assay (propidium iodide assay), A2780
- Assay type: cell-based
- CONDITION_SET: Homo sapiens; A2780 cells, 48 h treatment
PROPERTY_MEASURED: IC50

smiles_str=COc1ccc(-n2c(=NC#N)n(C)c3cnc4ccc(-c5cnc(N)c(C(F)(F)F)c5)cc4c32)cn1 readout_value="≤ 0.5 µM"
smiles_str=Cn1c(=NC#N)n(-c2ccc(C(C)(C)C#N)cc2)c2c3cc(-c4cnc5ccccc5c4)ccc3ncc21 readout_value="≤ 0.5 µM"
smiles_str=COc1ccc(-n2c(=NC#N)n(C)c3cnc4ccc(-c5cnc(N)c(C(F)(F)F)c5)cc4c32)c(C)n1 readout_value="≤ 0.5 µM"
smiles_str=Cn1c(=NC#N)n(-c2cncc(-c3ccccc3)c2)c2c3cc(-c4cnc(N)c(C(F)(F)F)c4)ccc3ncc21 readout_value="≤ 0.5 µM"
smiles_str=Cn1c(=NC#N)n(-c2ccc(C(C)(C)C#N)nc2)c2c3cc(-c4cnc(NCc5ccccc5)c(C(F)(F)F)c4)ccc3ncc21 readout_value="≤ 0.5 µM"

Could I get IC50 for every one of these entries?
1. Cn1c(=NC#N)n(-c2ccc3ncccc3c2)c2c3cc(-c4cnc(N)c(C(F)(F)F)c4)ccc3ncc21
2. Cn1c(=NC#N)n(-c2ccc(C(C)(C)C#N)nc2)c2c3cc(-c4cnc(N)nc4)ccc3ncc21

Outgoing:
1: ≤ 0.5 µM; 2: ≤ 0.5 µM

Provenance of the data: patent US9062046B2
